B1: Twister Ribozyme (parent)
chain: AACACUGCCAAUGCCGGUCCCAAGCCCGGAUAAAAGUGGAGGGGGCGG

Variants of: B1
Assay: self-cleavage, relative activity (ratio to wild type); higher = more cleavage; co-transcriptional

| SEQUENCE RECORD | self-cleavage |
| --- | --- |
| AACACUGCCAAUGCCGAUCCCAAGCCCGGAUAAAAGCGGAGGGGGCGG [G17A U37C] | 0.142 |
| AAGACUGCCAAUGCCGGUCCCAAGCCCGGAUAAAAUUGGAGGGGGCGG [C3G G36U] | 0.144 |
| AACACUGCCAAUGCCGGUGCGAAGCCCGGAUAAAAGUGGAGGGGGCGG [C19G C21G] | 0.0223 |
| AACACUGCCAAUGGCGGUCCCAAGCCCGGAUGAAAGUGGAGGGGGCGG [C14G A32G] | 0.117 |
| AACACUGCCAAUGCCGGUCCCCAGCCCGGAUAAAAGUGGAGCGGGCGG [A22C G42C] | 0.237 |
| AACACUGCCAACGCCGGUCCCAAGCCCGAAUAAAAGUGGAGGGGGCGG [U12C G29A] | 0.988 |
| AACACUGCCAAUGCCGGUCCCAAGCCCGGAUAAAAGUGGCGGAGGCGG [A40C G43A] | 0.138 |
| AACACUGCGAAUGCCGGUCCCAAGCCCGGAUAAAAGUGGAGGGGGCUG [C9G G47U] | 0.278 |
| AACACUGCCAGUGCCUGUCCCAAGCCCGGAUAAAAGUGGAGGGGGCGG [A11G G16U] | 0.875 |
| AACACUGCCAAUGCCGGUCCCAACCCCCGAUAAAAGUGGAGGGGGCGG [G24C G28C] | 0.135 |
| AACACUGCCAAUGCCGGUCUCAAGCCCGGAUAAAGGUGGAGGGGGCGG [C20U A35G] | 0.664 |
| AACACUGCCAAUGCCGGUUCCAAGCCCGGAUAUAAGUGGAGGGGGCGG [C19U A33U] | 0.86 |
| AACACUGCCAAUGCUGGUCCCAAGCCCGGAUAAAAGUGGAGGGGACGG [C15U G45A] | 0.924 |
| AACACUGCCAAUACCGGUCCCAAGCCCGGAUAAAAGUGGAGGUGGCGG [G13A G43U] | 0.182 |
| AACACUGCCAAUGCCGGUCCCAAUCCCGGAUAAAAGUGGAGGCGGCGG [G24U G43C] | 0.076 |
| AACACUGCCAAUGCCGGUCCCAAGCCCGGAUAAAAGUGGGGCGGGCGG [A40G G42C] | 0.215 |
| AACACUGACAAUGCCGGUCCCAAGCCCGGAUAAAAGUGGAGGGGGCGG [C8A] | 0.61 |
| AACACUGCAAAUGCCGGUCCCGAGCCCGGAUAAAAGUGGAGGGGGCGG [C9A A22G] | 0.101 |
| AACACUGCGAAUGCCGGUCCCAAGCCCGGAUAAAAGUGGAGGGGGGGG [C9G C46G] | 0.576 |
| AACACUGCCAAUGUCGGUCCCAAGCCCGGUUAAAAGUGGAGGGGGCGG [C14U A30U] | 1.06 |
| AACACUGCCAAUGCCGGUCCCAUGCCCGGAUAACAGUGGAGGGGGCGG [A23U A34C] | 0.0966 |
| GACACUGCCAAUGCCGGUCCCGAGCCCGGAUAAAAGUGGAGGGGGCGG [A1G A22G] | 0.165 |
| AACACUGCCAAUGCCGGUCCCAAGCCCGGACAAAAGUGGAGGUGGCGG [U31C G43U] | 0.537 |
| AACACUGCCAAUGCCGGUCCCAAGCCCGGUUAAAACUGGAGGGGGCGG [A30U G36C] | 0.559 |
| CACACUGCCAAUGCCGGUCCCAAGUCCGGAUAAAAGUGGAGGGGGCGG [A1C C25U] | 0.192 |
| AACACUGCCAAUGCCGGUCCCAAACCCGGAUAAAAGUUGAGGGGGCGG [G24A G38U] | 0.126 |
| AACAUUGCCAAUGCCGGUCCCAAGCCCGGAUAAAAGUGGAGGGGACGG [C5U G45A] | 0.605 |
| AACACUGCAAAUGCCGGUCCCAAGCCCGGAUAAAAGUGGAGGGGCCGG [C9A G45C] | 0.131 |
| AACAAUGCCGAUGCCGGUCCCAAGCCCGGAUAAAAGUGGAGGGGGCGG [C5A A10G] | 0.705 |
| AACACUGCCAAUGCCGGUCCCAAGCCCAGAUAAAAGUGCAGGGGGCGG [G28A G39C] | 0.154 |
| AACACUGCCAAUGCCGGUCCCAAUCCCGGAUAAAAGUGGAAGGGGCGG [G24U G41A] | 0.0908 |
| AACACUGCCACUGCCGGUCCCAAGCCCGGAUAAAAGUGAAGGGGGCGG [A11C G39A] | 0.601 |
| AACAGUGCCAAUGCCGGUCCCAAGCCCGGAUAAAAGUGGAGGGGGAGG [C5G C46A] | 0.776 |
| AACACUGCCAAUGCCGCUCCCAAGCCCGGAUAGAAGUGGAGGGGGCGG [G17C A33G] | 0.093 |
| AACACUGCCAAUGCCGGUCCCAAGCCCGGAUAAAAGUGGCGGGCGCGG [A40C G44C] | 0.226 |
| AACACAGCCAAUGCCGGUCCCAAGCCCGGAUAAAAGUGGAUGGGGCGG [U6A G41U] | 0.204 |
| AUCACUGCCAAUGCCGGUCCCAAGCCCGGGUAAAAGUGGAGGGGGCGG [A2U A30G] | 0.772 |
| AACACGGCCAAUGCCGGUCGCAAGCCCGGAUAAAAGUGGAGGGGGCGG [U6G C20G] | 0.0753 |
| AACACUGCCAAUGCCGGUCCCAAGCCCGGAUAAAAGUGGAGAGCGCGG [G42A G44C] | 0.178 |
| AACACUGCCAAUGCCGCUCCCAAGCCCGGAUAAAAGUGGAGGGCGCGG [G17C G44C] | 0.122 |
| AAUACUGCCAAUGCCGGUCCCAAGCCCGGAUACAAGUGGAGGGGGCGG [C3U A33C] | 0.476 |
| AACACUGUCAAUGCCGCUCCCAAGCCCGGAUAAAAGUGGAGGGGGCGG [C8U G17C] | 0.0682 |
| AACACUGCCAAUGCCGGUCGCAAGCCCGGAUAAAAGUGGAGGGGUCGG [C20G G45U] | 0.0778 |
| AACACUGCAAAUGCCGGUCCCAAGCCCAGAUAAAAGUGGAGGGGGCGG [C9A G28A] | 0.598 |
| AACACUGCCAAUACCGGUCCCAAGCCGGGAUAAAAGUGGAGGGGGCGG [G13A C27G] | 0.073 |
| AACACUGCCAAUGGCGGUCCCAAGCCCGCAUAAAAGUGGAGGGGGCGG [C14G G29C] | 0.228 |
| AACACUGCCAAUGUCGGUCCAAAGCCCGGAUAAAAGUGGAGGGGGCGG [C14U C21A] | 0.108 |
| AACACUGCCAACGCCGGUCCCAAGCCCGGAUAAAAGUGGAGGGAGCGG [U12C G44A] | 0.852 |
| AACACUGCCAAUGCCGGUCCCAAGCCCGGAUAAACGUGGAGGGCGCGG [A35C G44C] | 0.943 |
| AACACUGCCAAUGCCGUUCCCAAGCCCGGAUAAACGUGGAGGGGGCGG [G17U A35C] | 0.305 |
| AACACUGCCAAUGCCGGUCCCAAGCCCGGAUAAAAGUGGGGAGGGCGG [A40G G42A] | 0.113 |
| AACACUGCCAAUGCCGGUCCCAAACCCGGAUAAAAGUGGAGGGGGCGA [G24A G48A] | 0.121 |
| AACACUGCCAAUGCCGGUCUUAAGCCCGGAUAAAAGUGGAGGGGGCGG [C20U C21U] | 0.119 |
| AACACUGCCAAUGCCGUUCCCAAGCCCGGAUAAAAGUGGCGGGGGCGG [G17U A40C] | 0.123 |
| AACACUGCCAAUGCCGGUCCCAAGCCCGGAAAAAAGUGGAGGGGGCUG [U31A G47U] | 0.621 |
| AACACUGCCAAUGCCGGUCCCAAGGCCUGAUAAAAGUGGAGGGGGCGG [C25G G28U] | 0.259 |
| GACACUGCCAAUGCUGGUCCCAAGCCCGGAUAAAAGUGGAGGGGGCGG [A1G C15U] | 0.405 |
| AACACUGCCAAUGCCGGUCCCAAUCACGGAUAAAAGUGGAGGGGGCGG [G24U C26A] | 0.0928 |
| AACACUGCCACUGCCGGUCCCAAGCCCGGAUAAAAGUGGAUGGGGCGG [A11C G41U] | 0.42 |
| AACACUGCCGAUGCCGGUCCCAAGCCCGGAUAAAAGUGGAGGCGGCGG [A10G G43C] | 0.262 |
| AACACUGCCAAUGCCGGUCCCAAGCCCGGAUAAAAGCGGAGGCGGCGG [U37C G43C] | 0.102 |
| AACACUGCCAAUGACGGUCCCAAGCCCCGAUAAAAGUGGAGGGGGCGG [C14A G28C] | 0.757 |
| AACACUGCGAAUGCCGGUCCCAAGCCCGGAUAAAAGUGGAGGGGGCAG [C9G G47A] | 0.38 |
| AACACUGCCAGUGCCGGUCCCAAGCCCGGAUAAAAGUGGAGGGAGCGG [A11G G44A] | 0.778 |
| AACACUGCUAAUGCCGGUCCCAACCCCGGAUAAAAGUGGAGGGGGCGG [C9U G24C] | 0.0718 |
| AACACAGCCAAUGCCGGUCCCAAGCCCGGAUAAAAUUGGAGGGGGCGG [U6A G36U] | 0.202 |
| AACACUGCCAAUGCCGGUCCCAAGCCCGGAUAAACGUGGAGGGGGCUG [A35C G47U] | 0.932 |
| GACACUGCCGAUGCCGGUCCCAAGCCCGGAUAAAAGUGGAGGGGGCGG [A1G A10G] | 0.438 |
| AACACUGCCAAGGCCGGUCCCAAGCCCGAAUAAAAGUGGAGGGGGCGG [U12G G29A] | 0.622 |
| AACACUGCCAAUGCCGCUCCCAAGCCCGGAUAAAAGUGGAGGCGGCGG [G17C G43C] | 0.0789 |
| AACAGUGCCAAUGCCCGUCCCAAGCCCGGAUAAAAGUGGAGGGGGCGG [C5G G16C] | 0.0784 |
| AACACUGCCAAUGCCGGUCCUAAGCCCGGAUAAAAGUGGAGGGGGGGG [C21U C46G] | 0.135 |
| AACACUGCCAAUGCCGGUCCCAUGCCCGGAUAUAAGUGGAGGGGGCGG [A23U A33U] | 0.307 |
| CACACUGCCAAUGCCGAUCCCAAGCCCGGAUAAAAGUGGAGGGGGCGG [A1C G17A] | 0.172 |
| AACACUGCCAAUGCCGAUCCCAAGCCCGGAUAAUAGUGGAGGGGGCGG [G17A A34U] | 0.137 |
| AACGCUGCCAAUGCCGGUCGCAAGCCCGGAUAAAAGUGGAGGGGGCGG [A4G C20G] | 0.128 |
| AACACUGCCAAUGCCGGUACCAAGCCCGGAUAAAAGUGGAGGGGCCGG [C19A G45C] | 0.233 |
| AACACUGCCAAUGCCGGCCCCAAGCCCGGAUAAAAGUUGAGGGGGCGG [U18C G38U] | 0.261 |
| AACACUGCCAAUGCCAGUCCCAAGCCCGGACAAAAGUGGAGGGGGCGG [G16A U31C] | 0.816 |
| AACACUGCCAAUGGCGGUCCCAAGACCGGAUAAAAGUGGAGGGGGCGG [C14G C25A] | 0.0733 |
| AACACUGCCAAUGCCGAUCCCAAGCCCGGGUAAAAGUGGAGGGGGCGG [G17A A30G] | 0.615 |
| AACGCUGCCAAUGCCGGUCCCAAGCCCGGAUAAAAGAGGAGGGGGCGG [A4G U37A] | 0.796 |
| AACACUGCCAAUGCCUGUCCCAAGCCCGGAUAAAAGUGGAGAGGGCGG [G16U G42A] | 0.26 |
| AACACUGCCAAUGCCGGUCCUAAGCCCGGAUAAAAGUGGUGGGGGCGG [C21U A40U] | 0.0831 |
| AACACUGCCAAUGCCGGUCCCAAGCCCGGAUAAAAGUGGAGUGGCCGG [G42U G45C] | 0.203 |
| AACACUGCCAAUGCCGGUCCCAAGCCCGAAUAACAGUGGAGGGGGCGG [G29A A34C] | 0.282 |
| AACACUGCCAAUGCCGGUCCCAAGCCCGGAUAAAAGUGGAGGGGUCGA [G45U G48A] | 0.757 |
| AACACUGCCAAUGCCGGUCCCAAGCCCCGAUAAAAGUGGAGGGGGCGG [G28C] | 0.894 |
| AACACUGUCAAUGCCGGUCCCAUGCCCGGAUAAAAGUGGAGGGGGCGG [C8U A23U] | 0.078 |
| AACACUGCCAAUGCCAGUCCCAAGCCCGGAUAAAAGUGGAGGGAGCGG [G16A G44A] | 0.928 |
| AACACUGCCAAUGCCGGUCCCAAGCGCGGAUAAAAGUGGAAGGGGCGG [C26G G41A] | 0.128 |
